experiment: Clinical trial in healthy volunteers: 5-MeO-DMT and bufotenine plasma levels; assay type: in vivo, human; conditions: human, plasma, inhaled, 3 hours after administration; Part B 6 mg, 12 mg (n = 3); range 0.01-0.05; read-out: 5-MeO-DMT plasma levels, group median

{"Compound": "COc1ccc2[nH]cc(CCN(C)C)c2c1 [5-MeO-DMT, 5-methoxy-N,N-dimethyltryptamine]", "concentration at 3 h / ng/mL": 0.03}

====

Assay: Clinical trial in healthy volunteers: 5-MeO-DMT and bufotenine plasma levels
Type: in vivo, human
Details: human, plasma, inhaled, 6 mg, 3 hours after administration; Part A 6 mg (n = 6); range 0.00-0.06; read-out: 5-MeO-DMT plasma levels, group median
Experimental: A clinical trial was performed in which 5-MeO-DMT free base (purity not less than 99%) at different dose levels was administered via inhalation (as described in Example 1) in a single day to healthy volunteers who had prior experiences with the use of synthetic or naturally-occurring psychedelics. The trial was reviewed and approved by the relevant national competent authority and local medical ethics committee. […]

{"Smiles text": "COc1ccc2[nH]cc(CCN(C)C)c2c1", "concentration at 3 h (ng/mL)": 0.02}
